Hey, just so you know, these numbers are from patent US20190106460A1.

Measured pKd by item
target-desc: T1, HisβTrCP/Skp1 and HisβTrCP/GSTSkp1 (immobilised on NTA Biacore chip) (UniProt Q9Y297 175-605; P63208 1-163)
T1 construct: SPR: KD values from both surfaces (with or without the GST moiety) were averaged to give the apparent KD; also called βTrCP surfaces
T1 sequence (Q9Y297 175-605, chain 1 of 2): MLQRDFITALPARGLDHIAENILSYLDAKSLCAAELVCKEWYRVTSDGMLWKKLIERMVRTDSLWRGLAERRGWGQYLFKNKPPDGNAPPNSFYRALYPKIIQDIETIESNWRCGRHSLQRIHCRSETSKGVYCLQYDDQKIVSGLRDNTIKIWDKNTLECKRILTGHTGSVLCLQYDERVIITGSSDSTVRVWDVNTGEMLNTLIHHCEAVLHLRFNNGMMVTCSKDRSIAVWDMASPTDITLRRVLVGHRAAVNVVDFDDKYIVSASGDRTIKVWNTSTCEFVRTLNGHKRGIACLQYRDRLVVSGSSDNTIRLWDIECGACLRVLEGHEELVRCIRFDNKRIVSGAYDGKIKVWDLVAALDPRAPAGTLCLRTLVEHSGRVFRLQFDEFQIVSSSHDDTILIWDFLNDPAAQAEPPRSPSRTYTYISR
T1 sequence (P63208 whole entry, chain 2 of 2): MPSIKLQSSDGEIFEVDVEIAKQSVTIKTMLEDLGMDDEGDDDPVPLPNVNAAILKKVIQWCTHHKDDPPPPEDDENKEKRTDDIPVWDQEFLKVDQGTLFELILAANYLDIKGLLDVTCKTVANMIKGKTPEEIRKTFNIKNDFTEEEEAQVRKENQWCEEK
procedure-details: SPR, Biacore T200, βTrCP/Skp1 immobilised
Starred links: 1 amine or outer side, 2 acyl side, 3 side chain; linkers in the order of their positions; H or OH if unused. Non-standard residues stand in square brackets, D forms with d. *: point of attachment. E(Me) = COC(=O)CC[C@H](N[*:1])C(=O)[*:2]; Phe(3-Cl) = N[C@@H](Cc1cccc(Cl)c1)C(=O)O; Phe(3-F) = N[C@@H](Cc1cccc(F)c1)C(=O)O; Tos = Cc1ccc(S(=O)(=O)*)cc1
Recall that pKd is obtained by taking minus log10 of the concentration measured in molar.

Before answering, review these 2 worked examples.
{"binder": "Tos-[dD]EG[Phe(3-Cl)]W[E(Me)]-NH2 (also called UBP033) [Ts-dEGF(3Cl)WE(Me)-NH2]", "measure": "pKd", "measurement": 7.33}
{"binder": "Tos-DEG[Phe(3-F)]WE-NH2 (SMILES Cc1ccc(S(=O)(=O)N[C@@H](CC(=O)O)C(=O)N[C@@H](CCC(=O)O)C(=O)NCC(=O)N[C@@H](Cc2cccc(F)c2)C(=O)N[C@@H](Cc2c[nH]c3ccccc23)C(=O)N[C@@H](CCC(=O)O)C(N)=O)cc1, also called UBP024) [Ts-DEGF(3F)WE-NH2]", "measure": "pKd", "measurement": 7.72}

// moving on: another record for pKd
I would be grateful if you could share the reported pKd for Tos-[dD]EG[Phe(3-F)]W[E(Me)]-NH2 (also called UBP032) [Ts-dEGF(3F)WE(Me)-NH2] .
6.77
